# study_system: Bifunctional epoxide hydrolase 2 (Homo sapiens)
# assay_notes: sEH inhibitor concentration-response potency, dose response, biochemical, human sEH, fluorescence, Infinite200 (AID 1026)
# conditions: recombinant human sEH, fluorogenic substrate, at 0.2 µM, active compounds read high
Could you please report measured inhibition for the items listed next?
Express the result in % but write the number alone.

Read off the recorded inhibition for COc1ccc(CCN2C(=O)C3C4CC(C5C(C(=O)N/N=C\c6ccc(Cl)cc6)=NOC45)C3C2=O)cc1OC (stereo not given)
67.1

Could you please provide reported inhibition for CCCCCC(=O)Nc1ccc2oc(-c3cncc(Br)c3)nc2c1 ? Thanks!
51.2

Please give measured inhibition of the following entry: CCCCNC(=O)CSc1nc2ccc(NC(=O)CSc3nnc(COc4ccccc4C)n3C)cc2s1
58.5

Provide measured inhibition value, entry: COc1ccc(CNC(=O)/C=C/c2cc3c(cc2Br)OCO3)cc1
58.5

Consider the compound O=C(Nc1ccc2c(c1)OCCO2)NC1CCCCC1 . State its measured inhibition.
52.7

// fetch inhibition given entry Cc1ccccc1C(=O)N1CCC(C(=O)Nc2ccc(S(=O)(=O)N(C)C(C)C)cc2)CC1
50.3

Check the records and state inhibition for O=C1CSc2ccc(C(=O)NCCC3=CCCCC3)cc2N1
51.9

Dear colleague, please send me the reported inhibition for CS(=O)(=O)N(Cc1ccc(C(=O)NCCSCc2ccco2)cc1)c1ccccc1 when you can.
53.6

Item Cc1ccc(CCNC(=O)C2CCCN(S(=O)(=O)c3cccc4nsnc34)C2)cc1 (stereo not given) : provide inhibition
-5.2

Given the compound O=C(NCc1ccc2c(c1)OCO2)C1CCC(CNS(=O)(=O)c2cccc3nsnc23)CC1 (stereo not given) , write its reported inhibition.
59.7

----------
# study_system: Bifunctional epoxide hydrolase 2 (Homo sapiens) (UniProt P34913)
# Sequence (P34913 whole entry, looked up): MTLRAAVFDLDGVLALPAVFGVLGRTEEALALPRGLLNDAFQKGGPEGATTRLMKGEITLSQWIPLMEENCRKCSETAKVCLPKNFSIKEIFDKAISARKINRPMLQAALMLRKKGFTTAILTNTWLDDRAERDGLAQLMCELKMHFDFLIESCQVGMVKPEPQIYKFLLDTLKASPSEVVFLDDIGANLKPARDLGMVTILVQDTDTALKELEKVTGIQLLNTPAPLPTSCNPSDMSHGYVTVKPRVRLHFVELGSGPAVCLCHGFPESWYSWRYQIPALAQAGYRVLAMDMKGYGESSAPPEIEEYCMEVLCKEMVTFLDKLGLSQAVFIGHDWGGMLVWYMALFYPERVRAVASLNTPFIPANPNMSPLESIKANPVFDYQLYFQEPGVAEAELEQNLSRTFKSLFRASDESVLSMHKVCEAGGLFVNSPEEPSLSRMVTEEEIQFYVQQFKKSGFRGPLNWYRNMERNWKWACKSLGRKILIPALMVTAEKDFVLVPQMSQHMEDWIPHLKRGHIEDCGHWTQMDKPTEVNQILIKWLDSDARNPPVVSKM
# assay_notes: sEH inhibitor concentration-response potency, dose response, biochemical, human sEH, fluorescence, Infinite200 (AID 1026)
# conditions: recombinant human sEH, fluorogenic substrate, at 0.2 µM, active compounds read high
Provide the recorded inhibition for the entries that follow.
Answer in %, number only, no unit symbol.

Give me measured inhibition, please, for this compound: O=C(Nc1ccc(Cc2ccncc2)cc1)C1CCC(N2C(=O)C3C4C=CC(C5CC45)C3C2=O)CC1 (stereo unspecified)
56.4

Name the recorded inhibition of the compound listed here: O=C(COc1c(F)c(F)c(C(F)(F)F)c(F)c1F)Nc1ccc(N2CCOCC2)c(Cl)c1
49.2

State, in one line, measured inhibition of O=C(NCCc1c[nH]c2ccccc12)C1CCC(Cn2c(=S)[nH]c3ccccc3c2=O)CC1 (stereo unspecified)
72.7

Using the record for CCn1c(C(=O)N2CCCC(C(=O)NCCCc3ccccc3)C2)cc2sccc21 (stereo unspecified) , state its measured inhibition.
65.6

Give the measured inhibition for Cc1ccc2c(c1)nnn2C1CCN(C(=O)NC23CC4CC(CC(C4)C2)C3)CC1
60.5

Read the entry CC(C)c1ccc(NC(=O)NC2CCN(CC(=O)Nc3cccc4ccccc34)CC2)cc1 and write its reported inhibition.
62.2

Indicate the recorded inhibition value for this compound: CCC(C)NC(=O)Nc1ccc2c(c1)N(C)C(=O)c1ccccc1S2 (stereo unspecified)
59.7

Quick one: give measured inhibition for CC(C)(C)n1nnnc1CN1CCC(NC(=O)NC2CCCCC2)CC1
70.3

Identify measured inhibition corresponding to O=C(NCCC1=CCCCC1)C1CCCN(c2nc3ccccc3o2)C1 (stereo unspecified)
53.6

Answer with reported inhibition of O=C(N[C@@H](Cc1ccccc1)C(=O)NC1CCCCCC1)c1ccco1
36.3

In one line, give reported inhibition of the entry CCN(CCCNC(=O)CCCCn1c(=O)[nH]c2ccccc2c1=O)c1ccccc1 .
38.1

Quickly give me recorded inhibition for Cc1ccccc1C(=O)N1CCN(c2ccc(NC(=O)CSc3ccc(Cl)cc3)cc2)CC1
60.1

Supply recorded inhibition for CCC(CC)NC(=O)COC(=O)c1ccc(OCC(=O)Nc2ccccc2OC)c(OC)c1 here.
48.6

Give inhibition for CCOc1ccc(NC(=O)c2ccc(F)c(S(=O)(=O)N3CCN(c4ccccn4)CC3)c2)cc1
64.3

Fill in reported inhibition for this entry: C=CCN1C(=O)CSc2ccc(C(=O)NCCC3=CCCCC3)cc21
55.8

Give recorded inhibition. O=C(Nc1ccc2c(c1)nc1n2CCN(C2CCCCC2)C1)NC1CCCCC1
72.7

# return recorded inhibition for entry CC(C)(C)c1cnnn1-c1ccc(NC(=O)c2ccc3c(c2)OCO3)cc1
68.6

Return inhibition for the following compound: Cc1ccccc1CSCCNC(=O)CCSc1ccccc1
44.2

In one line, give reported inhibition of the entry Cc1cc2nc(-c3ccc(SCC(=O)N4CCN(C(=O)c5ccco5)CC4)nc3)[nH]c2cc1C .
48

Give recorded inhibition. O=C(Nc1ccc2c(c1)nc1n2CCN(Cc2ccccc2)C1)NC1CCCCC1
58.4

Let me know recorded inhibition for O=C(CCSc1ccc(Cl)cc1)NC12CC3CC(CC(C3)C1)C2 , thanks.
46.4

----------
# study_system: Bifunctional epoxide hydrolase 2 (Homo sapiens) (UniProt P34913)
# assay_notes: sEH inhibitor concentration-response potency, dose response, biochemical, human sEH, fluorescence, Infinite200 (AID 1026)
# conditions: recombinant human sEH, fluorogenic substrate, at 0.2 µM, active compounds read high
attribute_measured: inhibition (%)
Answer format: numeric, % implied, no suffix.

Print Bifunctional epoxide hydrolase 2 (Homo sapiens) (UniProt P34913) inhibition for O=C(Nc1ccccc1)Nc1ccc(S(=O)(=O)N2CCCCC2)cc1 .
72.3

State inhibition (Bifunctional epoxide hydrolase 2 (Homo sapiens) (UniProt P34913)) of O=C(NCc1ccc2c(c1)OCO2)C1CCN(c2ccc(S(=O)(=O)N3CCCC3)cc2)CC1 .
52.2

Given Cc1ccc(-n2nnnc2SCC(=O)NCCC2=CCCCC2)c(C)c1 , report its inhibition on Bifunctional epoxide hydrolase 2 (Homo sapiens) (UniProt P34913).
41.9

Give reported inhibition for CCN(CCNC(=O)C1CCN(Cc2nc(-c3ccc(Cl)cc3)oc2C)CC1)c1ccccc1 (Bifunctional epoxide hydrolase 2 (Homo sapiens) (UniProt P34913))
36.3

Tell me inhibition of CSc1cccc(NC(=O)Nc2ccc(Cl)cc2)c1 when tested on Bifunctional epoxide hydrolase 2 (Homo sapiens) (UniProt P34913).
59.3

GET inhibition where system = Bifunctional epoxide hydrolase 2 (Homo sapiens) (UniProt P34913) and item = O=C(NC1CCCCC1)NC1CC2CCC(C1)N2Cc1nnnn1Cc1ccc2c(c1)OCO2 (stereo unspecified)
74.2

Fill in inhibition for CCc1ccc(/C=N/NC(=O)c2ccc(OC3CCCC3)cc2)s1 tested with Bifunctional epoxide hydrolase 2 (Homo sapiens) (UniProt P34913).
65.8

Provide the reported inhibition (system: Bifunctional epoxide hydrolase 2 (Homo sapiens) (UniProt P34913)) for Cc1noc(C)c1COc1cccc(C(=O)NCc2ccccc2Cl)c1
52.4

Fill: inhibition (Bifunctional epoxide hydrolase 2 (Homo sapiens) (UniProt P34913)) for this molecule CCOc1ccc(NC(=O)NCC2CCN(c3ccc(OC)cc3)C2)cc1 (stereo unspecified)
26.9

Look up Bifunctional epoxide hydrolase 2 (Homo sapiens) (UniProt P34913) data: inhibition of CCC(C)c1ccc(NC(=O)c2cccs2)cc1 (stereo unspecified) , then report it.
68

Provide Bifunctional epoxide hydrolase 2 (Homo sapiens) (UniProt P34913) inhibition reading for O=C(N/N=C/c1cccc(O)c1)c1csc2ccccc12 .
54.3

----------
# study_system: Bifunctional epoxide hydrolase 2 (Homo sapiens)
# assay_notes: sEH inhibitor concentration-response potency, dose response, biochemical, human sEH, fluorescence, Infinite200 (AID 1026)
# conditions: recombinant human sEH, fluorogenic substrate, at 0.2 µM, active compounds read high
Active and inactive are the calls of the source. No rule for the calls is given here.
attribute_measured: inhibition

Determine reported inhibition for Cc1oc(-c2ccccc2F)nc1CN1CCC(C(=O)NC2CCCCCCC2)CC1 ; test system: Bifunctional epoxide hydrolase 2 (Homo sapiens).
63.1% (inactive)

Look up and report measured inhibition (Bifunctional epoxide hydrolase 2 (Homo sapiens)) for the following compound: O=C(Nc1ccc(N2CCOCC2)cc1)Nc1ccc(Cl)c(Cl)c1
40% (inactive)

Report value only: inhibition, Bifunctional epoxide hydrolase 2 (Homo sapiens), NNC(=O)c1cccc(COc2cccc(Br)c2)c1
37.1% (inactive)

Specify the recorded inhibition for CC1CCCC(NC(=O)Nc2cccs2)C1C (stereo unspecified) , system: Bifunctional epoxide hydrolase 2 (Homo sapiens).
49.2% (inactive)

For Bifunctional epoxide hydrolase 2 (Homo sapiens), give inhibition of the listed compound: CCCCC(CC)CNC(=O)C1CCCN(S(=O)(=O)c2cnc[nH]2)C1 (stereo unspecified)
49.9% (inactive)

Report its inhibition with Bifunctional epoxide hydrolase 2 (Homo sapiens) as the test system: O=C(NCCC1=CCCCC1)C1CCN(c2nc3ccccc3o2)CC1
45.6% (inactive)

Write down measured inhibition (Bifunctional epoxide hydrolase 2 (Homo sapiens)) for this compound. CC1CCCCN1C(=O)NC12CC3CC(CC(C3)C1)C2 (stereo unspecified)
16.8% (inactive)

Using Bifunctional epoxide hydrolase 2 (Homo sapiens) as the test system, report measured inhibition of CCn1c(C(=O)N2CCC(C(=O)NCCCSC3CCCCC3)CC2)cc2sccc21 .
61.7% (inactive)

Name the recorded inhibition of O=C(Nc1cccc(F)c1)NC1CC2CCCC(C1)N2C1CC1 (stereo unspecified) , assay system Bifunctional epoxide hydrolase 2 (Homo sapiens).
58.4% (inactive)

Lab note: record inhibition of CC(Cc1cccs1)NC(=O)NC1CCCCC1 (stereo unspecified) tested on Bifunctional epoxide hydrolase 2 (Homo sapiens).
57.2% (inactive)

Quote Bifunctional epoxide hydrolase 2 (Homo sapiens) inhibition for entry O=C(NC12CC3CC(CC(C3)C1)C2)N1CC2Cc3cccc(=O)n3C(C2)C1 (stereo unspecified) .
54.2% (inactive)
